test system: Escherichia coli TOP10; assay: shrunken log2 fold change of peptide-encoding DNA abundance (4.5 h post-induction vs induction); higher = less antimicrobial activity (less host growth inhibition); details: time post-induction: 4.5 h; library: site-saturation at positions 5, 18, 19, 20
Think of 0.04 as a floor: if shrunken log2 fold change stands on it or above, it is fulfilled; beneath it, not fulfilled.

{"residue-codes": "RRIRCRPPRLPRPRPRPLLEPRP", "target-entity": "Escherichia coli TOP10", "class-label": "fulfilled"}
{"residue-codes": "RRIRWRPPRLPRPRPRPHLMPRP", "target-entity": "Escherichia coli TOP10", "class-label": "not fulfilled"}
{"residue-codes": "RRIRLRPPRLPRPRPRPDKWPRP", "target-entity": "Escherichia coli TOP10", "class-label": "fulfilled"}
{"residue-codes": "RRIRWRPPRLPRPRPRPWMWPRP", "target-entity": "Escherichia coli TOP10", "class-label": "not fulfilled"}
{"residue-codes": "RRIRPRPPRLPRPRPRPNCHPRP", "target-entity": "Escherichia coli TOP10", "class-label": "not fulfilled"}
{"residue-codes": "RRIRMRPPRLPRPRPRPVVCPRP", "target-entity": "Escherichia coli TOP10", "class-label": "fulfilled"}
{"residue-codes": "RRIRARPPRLPRPRPRPQANPRP", "target-entity": "Escherichia coli TOP10", "class-label": "fulfilled"}
{"residue-codes": "RRIRRRPPRLPRPRPRPRFVPRP", "target-entity": "Escherichia coli TOP10", "class-label": "fulfilled"}
{"residue-codes": "RRIRSRPPRLPRPRPRPIVSPRP", "target-entity": "Escherichia coli TOP10", "class-label": "fulfilled"}
{"residue-codes": "RRIRSRPPRLPRPRPRPEPRPRP", "target-entity": "Escherichia coli TOP10", "class-label": "fulfilled"}
{"residue-codes": "RRIRERPPRLPRPRPRPADFPRP", "target-entity": "Escherichia coli TOP10", "class-label": "fulfilled"}
{"residue-codes": "RRIRKRPPRLPRPRPRPCIYPRP", "target-entity": "Escherichia coli TOP10", "class-label": "not fulfilled"}
{"residue-codes": "RRIRGRPPRLPRPRPRPILAPRP", "target-entity": "Escherichia coli TOP10", "class-label": "fulfilled"}
{"residue-codes": "RRIRERPPRLPRPRPRPNYVPRP", "target-entity": "Escherichia coli TOP10", "class-label": "not fulfilled"}
{"residue-codes": "RRIRYRPPRLPRPRPRPTQFPRP", "target-entity": "Escherichia coli TOP10", "class-label": "not fulfilled"}
{"residue-codes": "RRIRRRPPRLPRPRPRPDTQPRP", "target-entity": "Escherichia coli TOP10", "class-label": "fulfilled"}

----------
shrunken log2 fold change reference
test system: Escherichia coli TOP10; test: shrunken log2 fold change of peptide-encoding DNA abundance (4.5 h post-induction vs induction); higher = less antimicrobial activity (less host growth inhibition); conditions: time post-induction: 4.5 h; library: site-saturation at positions 5, 18, 19, 20
reported-property: shrunken log2 fold change

{"residue-codes": "RRIRHRPPRLPRPRPRPQDFPRP", "target-entity": "Escherichia coli TOP10", "reported-result": 0.0261}
{"residue-codes": "RRIRPRPPRLPRPRPRPRMHPRP", "target-entity": "Escherichia coli TOP10", "reported-result": 0.115}
{"residue-codes": "RRIRRRPPRLPRPRPRPCAWPRP", "target-entity": "Escherichia coli TOP10", "reported-result": 0.0864}
{"residue-codes": "RRIRGRPPRLPRPRPRPYVHPRP", "target-entity": "Escherichia coli TOP10", "reported-result": -0.142}
{"residue-codes": "RRIRMRPPRLPRPRPRPERLPRP", "target-entity": "Escherichia coli TOP10", "reported-result": 0.442}
{"residue-codes": "RRIRCRPPRLPRPRPRPCWWPRP", "target-entity": "Escherichia coli TOP10", "reported-result": 0.904}
{"residue-codes": "RRIRPRPPRLPRPRPRPEEWPRP", "target-entity": "Escherichia coli TOP10", "reported-result": -0.0099}
{"residue-codes": "RRIRDRPPRLPRPRPRPMITPRP", "target-entity": "Escherichia coli TOP10", "reported-result": -0.115}
{"residue-codes": "RRIRNRPPRLPRPRPRPYQTPRP", "target-entity": "Escherichia coli TOP10", "reported-result": -0.00141}
{"residue-codes": "RRIRNRPPRLPRPRPRPSDFPRP", "target-entity": "Escherichia coli TOP10", "reported-result": -0.00477}
{"residue-codes": "RRIRSRPPRLPRPRPRPLNYPRP", "target-entity": "Escherichia coli TOP10", "reported-result": -0.166}
{"residue-codes": "RRIRWRPPRLPRPRPRPQCVPRP", "target-entity": "Escherichia coli TOP10", "reported-result": -0.0311}

----------
test system: Escherichia coli TOP10; test: shrunken log2 fold change of peptide-encoding DNA abundance (4.5 h post-induction vs induction); higher = less antimicrobial activity (less host growth inhibition); conditions: time post-induction: 4.5 h; library: site-saturation at positions 5, 18, 19, 20;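 further: peptides expressed intracellularly from a pBAD plasmid library in pooled LB shake-flask culture, induced with 0.3% L-arabinose, DNA abundance read by NGS, three biological replicates, DESeq2 with apeglm shrinkage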
Think of -0.03 as a floor: if shrunken log2 fold change stands on it or above, it is class 1; beneath it, class 0.

{"residue-codes": "RRIRTRPPRLPRPRPRPVDVPRP", "target-entity": "Escherichia coli TOP10", "class-label": "class 0"}
{"residue-codes": "RRIRTRPPRLPRPRPRPATEPRP", "target-entity": "Escherichia coli TOP10", "class-label": "class 0"}
{"residue-codes": "RRIRSRPPRLPRPRPRPPHHPRP", "target-entity": "Escherichia coli TOP10", "class-label": "class 0"}
{"residue-codes": "RRIRWRPPRLPRPRPRPNYDPRP", "target-entity": "Escherichia coli TOP10", "class-label": "class 0"}
{"residue-codes": "RRIRLRPPRLPRPRPRPALFPRP", "target-entity": "Escherichia coli TOP10", "class-label": "class 1"}
{"residue-codes": "RRIRNRPPRLPRPRPRPYTEPRP", "target-entity": "Escherichia coli TOP10", "class-label": "class 0"}
{"residue-codes": "RRIRTRPPRLPRPRPRPTNRPRP", "target-entity": "Escherichia coli TOP10", "class-label": "class 1"}
{"residue-codes": "RRIRHRPPRLPRPRPRPIAHPRP", "target-entity": "Escherichia coli TOP10", "class-label": "class 1"}
{"residue-codes": "RRIRTRPPRLPRPRPRPDFVPRP", "target-entity": "Escherichia coli TOP10", "class-label": "class 0"}
{"residue-codes": "RRIRFRPPRLPRPRPRPIHYPRP", "target-entity": "Escherichia coli TOP10", "class-label": "class 0"}
{"residue-codes": "RRIRHRPPRLPRPRPRPPFAPRP", "target-entity": "Escherichia coli TOP10", "class-label": "class 1"}
{"residue-codes": "RRIRVRPPRLPRPRPRPISYPRP", "target-entity": "Escherichia coli TOP10", "class-label": "class 0"}
{"residue-codes": "RRIRERPPRLPRPRPRPFVLPRP", "target-entity": "Escherichia coli TOP10", "class-label": "class 0"}
{"residue-codes": "RRIRERPPRLPRPRPRPKLDPRP", "target-entity": "Escherichia coli TOP10", "class-label": "class 0"}
{"residue-codes": "RRIRDRPPRLPRPRPRPYFIPRP", "target-entity": "Escherichia coli TOP10", "class-label": "class 0"}
{"residue-codes": "RRIRPRPPRLPRPRPRPYPHPRP", "target-entity": "Escherichia coli TOP10", "class-label": "class 0"}
{"residue-codes": "RRIRSRPPRLPRPRPRPGCKPRP", "target-entity": "Escherichia coli TOP10", "class-label": "class 1"}
{"residue-codes": "RRIRIRPPRLPRPRPRPNCPPRP", "target-entity": "Escherichia coli TOP10", "class-label": "class 0"}
{"residue-codes": "RRIRCRPPRLPRPRPRPTAEPRP", "target-entity": "Escherichia coli TOP10", "class-label": "class 1"}
{"residue-codes": "RRIRCRPPRLPRPRPRPTPSPRP", "target-entity": "Escherichia coli TOP10", "class-label": "class 1"}
{"residue-codes": "RRIRTRPPRLPRPRPRPYGDPRP", "target-entity": "Escherichia coli TOP10", "class-label": "class 1"}
{"residue-codes": "RRIRIRPPRLPRPRPRPAPMPRP", "target-entity": "Escherichia coli TOP10", "class-label": "class 1"}
{"residue-codes": "RRIRPRPPRLPRPRPRPHFQPRP", "target-entity": "Escherichia coli TOP10", "class-label": "class 1"}
{"residue-codes": "RRIRYRPPRLPRPRPRPQIKPRP", "target-entity": "Escherichia coli TOP10", "class-label": "class 0"}
{"residue-codes": "RRIRCRPPRLPRPRPRPPARPRP", "target-entity": "Escherichia coli TOP10", "class-label": "class 1"}
{"residue-codes": "RRIRHRPPRLPRPRPRPNMHPRP", "target-entity": "Escherichia coli TOP10", "class-label": "class 1"}
{"residue-codes": "RRIRWRPPRLPRPRPRPEGPPRP", "target-entity": "Escherichia coli TOP10", "class-label": "class 1"}
{"residue-codes": "RRIRDRPPRLPRPRPRPYLYPRP", "target-entity": "Escherichia coli TOP10", "class-label": "class 0"}
{"residue-codes": "RRIRHRPPRLPRPRPRPPDEPRP", "target-entity": "Escherichia coli TOP10", "class-label": "class 1"}
{"residue-codes": "RRIRFRPPRLPRPRPRPNGWPRP", "target-entity": "Escherichia coli TOP10", "class-label": "class 1"}
{"residue-codes": "RRIRYRPPRLPRPRPRPPGQPRP", "target-entity": "Escherichia coli TOP10", "class-label": "class 1"}
{"residue-codes": "RRIRRRPPRLPRPRPRPRIYPRP", "target-entity": "Escherichia coli TOP10", "class-label": "class 0"}
{"residue-codes": "RRIRDRPPRLPRPRPRPRSLPRP", "target-entity": "Escherichia coli TOP10", "class-label": "class 1"}
{"residue-codes": "RRIRKRPPRLPRPRPRPVMSPRP", "target-entity": "Escherichia coli TOP10", "class-label": "class 0"}
{"residue-codes": "RRIRIRPPRLPRPRPRPLRYPRP", "target-entity": "Escherichia coli TOP10", "class-label": "class 0"}
{"residue-codes": "RRIRFRPPRLPRPRPRPMFCPRP", "target-entity": "Escherichia coli TOP10", "class-label": "class 0"}
{"residue-codes": "RRIRKRPPRLPRPRPRPQLIPRP", "target-entity": "Escherichia coli TOP10", "class-label": "class 1"}
{"residue-codes": "RRIRFRPPRLPRPRPRPVTNPRP", "target-entity": "Escherichia coli TOP10", "class-label": "class 0"}
{"residue-codes": "RRIRHRPPRLPRPRPRPAMGPRP", "target-entity": "Escherichia coli TOP10", "class-label": "class 0"}
{"residue-codes": "RRIRMRPPRLPRPRPRPEEPPRP", "target-entity": "Escherichia coli TOP10", "class-label": "class 1"}
{"residue-codes": "RRIRIRPPRLPRPRPRPNPTPRP", "target-entity": "Escherichia coli TOP10", "class-label": "class 0"}
{"residue-codes": "RRIRYRPPRLPRPRPRPSIVPRP", "target-entity": "Escherichia coli TOP10", "class-label": "class 0"}
